- Assay remarks: in vivo
- Condition description: both, monkey, iv, 2.5 mg/kg
Residues, ends and D or L forms follow the SMILES beside them.
Observed property: AUC(0-t) (µg·h/mL)

INSERT INTO measurements (compound, observed_property, units_label, readout_value) VALUES
  ('CC(=O)N[C@H](C(=O)N[C@@H](CO)C(=O)N[C@@H](CCCNC(=N)N)C(=O)N[C@@H](CCCNC(=N)N)C(=O)N[C@@H](CCCNC(=N)N)C(N)=O)C(C)C [CN-105, Ac-VSRRR-NH2] (Ac-VSRRR-NH2)', 'AUC(0-t)', 'µg·h/mL', 8.3);

* * *

- Assay remarks: in vivo
- Condition description: both, SD, rat, iv, 0.1 mg/kg
Residues, ends and D or L forms follow the SMILES beside them.
Observed property: AUC(0-t) (ng·h/mL)

INSERT INTO assay_data (compound, readout_value) VALUES
  ('CC(=O)N[C@H](C(=O)N[C@@H](CO)C(=O)N[C@@H](CCCNC(=N)N)C(=O)N[C@@H](CCCNC(=N)N)C(=O)N[C@@H](CCCNC(=N)N)C(N)=O)C(C)C [CN-105, Ac-VSRRR-NH2] (Ac-VSRRR-NH2)', 125);

* * *

- Assay remarks: in vivo
- Condition description: both, SD, rat, iv, 1 mg/kg
Residues, ends and D or L forms follow the SMILES beside them.
Observed property: AUC(0-t)

INSERT INTO assay_data (compound, observed_property, readout_value) VALUES
  ('CC(=O)N[C@H](C(=O)N[C@@H](CO)C(=O)N[C@@H](CCCNC(=N)N)C(=O)N[C@@H](CCCNC(=N)N)C(=O)N[C@@H](CCCNC(=N)N)C(N)=O)C(C)C [CN-105, Ac-VSRRR-NH2] (Ac-VSRRR-NH2)', 'AUC(0-t)', '1800 ng·h/mL');

* * *

- Assay remarks: in vivo
- Condition description: both, SD, rat, iv, 3 mg/kg
Residues, ends and D or L forms follow the SMILES beside them.
Observed property: Vd

INSERT INTO measurements (compound, observed_property, readout_value) VALUES
  ('CC(=O)N[C@H](C(=O)N[C@@H](CO)C(=O)N[C@@H](CCCNC(=N)N)C(=O)N[C@@H](CCCNC(=N)N)C(=O)N[C@@H](CCCNC(=N)N)C(N)=O)C(C)C [CN-105, Ac-VSRRR-NH2] (Ac-VSRRR-NH2)', 'Vd', '0.645 L/kg');

* * *

- Assay remarks: in vivo
- Condition description: both, SD, rat, iv, 1 mg/kg
Residues, ends and D or L forms follow the SMILES beside them.
Observed property: Vd

INSERT INTO results (compound, readout_value) VALUES
  ('CC(=O)N[C@H](C(=O)N[C@@H](CO)C(=O)N[C@@H](CCCNC(=N)N)C(=O)N[C@@H](CCCNC(=N)N)C(=O)N[C@@H](CCCNC(=N)N)C(N)=O)C(C)C [CN-105, Ac-VSRRR-NH2] (Ac-VSRRR-NH2)', '0.5 L/kg');

* * *

- Assay remarks: in vivo
- Condition description: both, monkey, iv, 0.1 mg/kg
Residues, ends and D or L forms follow the SMILES beside them.
Observed property: Cmax (ng/mL)

INSERT INTO assay_data (molecule, observed_property, readout_value) VALUES
  ('CC(=O)N[C@H](C(=O)N[C@@H](CO)C(=O)N[C@@H](CCCNC(=N)N)C(=O)N[C@@H](CCCNC(=N)N)C(=O)N[C@@H](CCCNC(=N)N)C(N)=O)C(C)C [CN-105, Ac-VSRRR-NH2] (Ac-VSRRR-NH2)', 'Cmax', 320);

All values here come from paper PMC8787096.
